B1: TPR 5TU (parent)
chain: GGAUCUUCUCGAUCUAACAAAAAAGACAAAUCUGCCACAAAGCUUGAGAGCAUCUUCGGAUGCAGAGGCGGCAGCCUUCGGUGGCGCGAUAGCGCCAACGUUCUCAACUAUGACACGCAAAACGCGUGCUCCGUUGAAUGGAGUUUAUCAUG

Variants of: B1
EXPERIMENT SUMMARY: polymerase ribozyme fitness, log enrichment relative to wild type (log ratio); higher = more active; in vitro selection for triplet polymerase activity
This sample holds only a part of the variants without activity.
QUANTITY MEASURED: polymerase ribozyme fitness (log ratio)

Reference set (4 entries):
                           variant_notation  obs_value
0           A16C C38U G80U C96G A142C U148G     ≤ -4.2
1                                 C85U A89C      -1.13
2  C14A A17G U31A G59A C75G C95U U101G A113U A121U     ≤ -4.2
3                G59C C93G A97U U127C A137G     ≤ -4.2

Determine from records and report polymerase ribozyme fitness (log ratio) for G71A G88A
≤ -4.2

Determine from records and report polymerase ribozyme fitness (log ratio) for U31A C75G C95U C118U
-3.7
